measured.metric: intrinsic clearance, rat liver microsomes (mL/min/kg)

Use these answered entries as a reference point.
{"mol": "C[C@@H](NC(=O)N1CCC2(CCOCC2)CC1)c1ccc(F)cc1", "recorded.value": 237}
{"mol": "O=c1c2ccncc2ncn1[C@H]1CCN(Cc2ccccc2)C1", "recorded.value": 796}
{"mol": "Cc1nc2cc(-c3nccn3C)nn2c(NCCCN(C)C)c1C", "recorded.value": 601}
{"mol": "Cc1noc2ncc(C(=O)Nc3nc(C4CC4)cs3)cc12", "recorded.value": 377}
{"mol": "Cc1nsc(NCc2cncs2)n1", "recorded.value": 16.8}
{"mol": "CN(Cc1cccc(Cl)c1Cl)Cc1cc(=O)n(C)c(=O)n1C", "recorded.value": 2760}
{"mol": "COc1ccc(C(=O)Cn2c(=O)n(-c3ccccc3F)c3nc(C)nc(C(N)=O)c32)cc1", "recorded.value": 76}
{"mol": "Cc1nn(C(F)F)c(C)c1CC(=O)NCCNC(C)(C)C", "recorded.value": 253}

P = Cc1ccc(Cl)c(OC[C@@]2(O)CN(C3CCC3)CC[C@@H]2O)c1
Q = Cc1cc(N2CCCCC2)nc(CNC(=O)c2ccccc2Cl)n1
Exam item: // compare measured intrinsic clearance, rat liver microsomes between P and Q ; output the lower one Response format: the label of the selected entry.
Marked response: Q
(Q: 1000 mL/min/kg, P: 2290 mL/min/kg)

----------
measured.metric: intrinsic clearance, human liver microsomes (mL/min/kg)

Use these answered entries as a reference point.
{"compound": "O=C(CN1CCCC(c2cccc(Cc3cccc(F)c3)n2)C1)N1CCCC1 (stereo not drawn)", "readout.units": "mL/min/kg", "recorded.value": 76.2}
{"compound": "c1ccc2[nH]c(SCc3cn4ccccc4n3)nc2c1", "readout.units": "mL/min/kg", "recorded.value": 86.2}
{"compound": "CCn1ncc(CN2CCC(c3nc(N(C)C)ncc3-c3ccc(OC)cc3)CC2)c1C", "readout.units": "mL/min/kg", "recorded.value": 227}

A = CC(C)(C)OC(=O)NCc1ccc(C(=N)NC(=O)OCc2ccccc2)cc1
B = CC(C)Cn1c(=O)[nH]c(=O)c2c1nc1n2CCCCC1
Exam item: // compare measured intrinsic clearance, human liver microsomes between A and B ; output the lower one Response format: the label of the selected entry.
Marked response: B

----------
measured.metric: intrinsic clearance, human liver microsomes (mL/min/kg)

Use these answered entries as a reference point.
{"mol": "O=C(CCCc1cc(Cl)sc1Cl)N1CC[C@H](O)C1", "recorded.value": 18.6}
{"mol": "Cc1cccc(Oc2ncccc2N)c1C", "recorded.value": 11.7}

P = CN(Cc1cnc2ccccc2n1)S(=O)(=O)N1CCCC1
Q = N#CCN1CCC(CNC(=O)c2c(F)ccc(F)c2F)CC1
R = COc1cc(Br)c(Nc2nc(-c3c(C)nc4ncccn34)cs2)c(Br)c1
S = O=C1NCCSc2c1sc1ccc(O)cc21
Exam item: Put the entries in order of intrinsic clearance, human liver microsomes, starting with the largest number. Record the ranking as a list of labels in the requested order.
Marked response: R, S, P, Q
(R: 75.9 mL/min/kg, S: 48.8 mL/min/kg, P: 13.3 mL/min/kg, Q: 4.81 mL/min/kg)

----------
measured.metric: intrinsic clearance, rat liver microsomes (mL/min/kg)

Use these answered entries as a reference point.
{"compound": "N#Cc1cccc(CN2CCOC[C@H](Oc3ccccc3)C2)c1", "recorded.value": 2020}
{"compound": "Cc1cc(C)c(CC(=O)N2CC(CO)C2)c(C)c1", "recorded.value": 15.6}
{"compound": "Cc1ccnc(C2CCN(C3CCCC3)CC2)n1", "recorded.value": 848}

I = c1csc(-c2csc3nc(CN4CCOCC4)nc(N4CCc5[nH]ncc5C4)c23)c1
II = C[C@H]1NC(=O)N(CCc2nc(C(F)(F)F)cs2)C1=O
Exam item: # returns the entry with the larger intrinsic clearance, rat liver microsomes; inputs I and II Response format: the label of the selected entry.
Marked response: I

a = CC(C)N(C(=O)Cn1cccc2cc(-c3ccco3)nc1-2)C(C)C
b = Cc1cc(C(F)(F)F)nc(N(C)Cc2c(C)noc2C)n1
Exam item: // compare measured intrinsic clearance, rat liver microsomes between a and b ; output the lower one Response format: the label of the selected entry.
Marked response: b

I = CCS(=O)(=O)Cc1ccn(-c2cccc(F)c2)n1
II = Clc1cccc(Cl)c1Cc1n[nH]c(CCCn2cccn2)n1
Exam item: // compare measured intrinsic clearance, rat liver microsomes between I and II ; output the lower one Response format: the label of the selected entry.
Marked response: I
(I: 38.7 mL/min/kg, II: 581 mL/min/kg)

a = Fc1ccccc1CNc1nc(-c2ccccc2)no1
b = O=C(COc1ncnc2ccccc12)NC12CC3CC(CC(C3)C1)C2
c = COc1ccc(CC(=O)Nc2ccc(F)nc2)cc1
Exam item: Put the entries in order of intrinsic clearance, rat liver microsomes, starting with the largest number. Record the ranking as a list of labels in the requested order.
Marked response: b, a, c
